experiment: Kinetic solubility in aqueous media (nephelometer turbidity); type: physicochemical; conditions: aqueous buffer, kinetic from dmso stock; phosphate citrate buffer pH 7.4, dilution from 5 mM DMSO stock; read-out: Solubility Score
In this section we review reported solubility values for a set of compounds.

- COMPOUND: "O=C(NO)c1cnc(N2CCOC(CNC(=O)c3ccc(-c4ccccc4)cc3)C2)nc1 (stereo not drawn) [Compound 8]"
  RESULT: "> 454 µM"
- COMPOUND: "O=C(NO)c1cnc(N2CCOC(CNS(=O)(=O)c3ccc(-c4ccccc4)cc3)C2)nc1 (stereo not drawn) [Compound 4]"
  RESULT: "< 75.8 µM"

QUERY: Entry under review: O=C(NO)c1cnc(N2CCOC(CNS(=O)(=O)c3ccc4ccccc4c3)C2)nc1 (stereo not drawn) [Compound 6] . Reported solubility?
RESULT: > 454 µM

QUERY: And for O=C(NO)c1cnc(N2CCCC(CNS(=O)(=O)c3ccc4ccccc4c3)C2)nc1 (stereo not drawn) [Compound 10] ?
RESULT: > 454 µM

QUERY: And for O=C(NO)c1cnc(N2CCN(Cc3ccccc3)C(CNS(=O)(=O)c3ccc4ccccc4c3)C2)nc1 (stereo not drawn) [Compound 3] ?
RESULT: < 75.8 µM

QUERY: And for O=C(NO)c1cnc(N2CC[C@H](O)[C@H](CNS(=O)(=O)c3ccc4ccccc4c3)C2)nc1 [Compound 11] ?
RESULT: > 454 µM

====

READOUT KIND: melting point (°C)

- COMPOUND: "O=C(NO)c1cnc(N2CCOC(CNC(=O)c3ccc4ccccc4c3)C2)nc1 (centres unmarked) [Compound 9]"
  UNIT SYMBOL: "°C"
  NUMERIC RESULT: 246
- COMPOUND: "O=C(NO)c1cnc(N2CCO[C@H](CNS(=O)(=O)c3ccc(-c4ccccc4)cc3)C2)nc1 [Compound 1]"
  UNIT SYMBOL: "°C"
  NUMERIC RESULT: 164
- COMPOUND: "O=C(NO)c1cnc(N2CCOC(CNS(=O)(=O)c3ccc4ccccc4c3)C2)nc1 (centres unmarked) [Compound 6]"
  UNIT SYMBOL: "°C"
  NUMERIC RESULT: 179
- COMPOUND: "O=C(NO)c1cnc(N2CC[C@H](O)[C@H](CNS(=O)(=O)c3ccc4ccccc4c3)C2)nc1 [Compound 11]"
  UNIT SYMBOL: "°C"
  NUMERIC RESULT: 176
- COMPOUND: "O=C(NO)c1cnc(N2CCOC(CNS(=O)(=O)c3ccc(-c4ccccc4)cc3)C2)nc1 (centres unmarked) [Compound 4]"
  UNIT SYMBOL: "°C"
  NUMERIC RESULT: 163
- COMPOUND: "O=C(NO)c1cnc(N2CCCC(CNS(=O)(=O)c3ccc4ccccc4c3)C2)nc1 (centres unmarked) [Compound 10]"
  UNIT SYMBOL: "°C"
  NUMERIC RESULT: 210
- COMPOUND: "O=C(NO)c1cnc(N2CCOC(CNC(=O)c3ccc(-c4ccccc4)cc3)C2)nc1 (centres unmarked) [Compound 8]"
  UNIT SYMBOL: "°C"
  NUMERIC RESULT: 290
- COMPOUND: "O=C(NO)c1ccc(N2CCOC(CNS(=O)(=O)c3ccc(-c4ccccc4)cc3)C2)nc1 (centres unmarked) [Compound 5]"
  UNIT SYMBOL: "°C"
  NUMERIC RESULT: 210

====

experiment: Kinetic solubility in aqueous media (nephelometer turbidity); assay type: physicochemical; conditions: aqueous buffer, kinetic from dmso stock; phosphate citrate buffer pH 7.4, dilution from 5 mM DMSO stock; read-out: Solubility Score
READOUT KIND: solubility

Worked examples follow.
- COMPOUND: "O=C(NO)c1cnc(N2CCO[C@H](CNS(=O)(=O)c3ccc(-c4ccccc4)cc3)C2)nc1 [Compound 12]"
  solubility: "75.8 to 454 µM"
- COMPOUND: "O=C(NO)c1cnc(N2CCOC(CNC(=O)c3ccc4ccccc4c3)C2)nc1 (stereo not shown) [Compound 9]"
  solubility: "> 454 µM"
- COMPOUND: "O=C(NO)c1cnc(N2CCNC(CNS(=O)(=O)c3ccc4ccccc4c3)C2)nc1 (stereo not shown) [Compound 2]"
  solubility: "< 75.8 µM"

Now consider the entry below.
QUERY: Entry under review: O=C(NO)c1ccc(N2CCOC(CNS(=O)(=O)c3ccc4ccccc4c3)C2)nc1 (stereo not shown) [Compound 7] . Reported solubility?
RESULT: > 454 µM

====

READOUT KIND: melting point (°C)

[a] O=C(NO)c1ccc(N2CCOC(CNS(=O)(=O)c3ccc4ccccc4c3)C2)nc1 (stereo not drawn)
[b] O=C(NO)c1cnc(N2CCNC(CNS(=O)(=O)c3ccc4ccccc4c3)C2)nc1 (stereo not drawn)
QUERY: Exercise: compare a and b ; which one has the greater melting point? Kindly give the label for the entry you pick.
RESULT: b
(b: 243 °C, a: 157 °C)

====

target: histone deacetylase (HeLa nuclear extracts); assay: In vitro assay for inhibition of histone deacetylase (HeLa nuclear extracts, radiolabeled histone H4 peptide substrate); type: biochemical; conditions: HeLa nuclear extracts 60 μg/ml, 30 min, pH 7.4
READOUT KIND: Enzyme activity pIC50

- COMPOUND: "O=C(NO)c1cnc(N2CCCC(CNS(=O)(=O)c3ccc4ccccc4c3)C2)nc1 (stereo not shown) [Compound 10]"
  Enzyme activity pIC50: 7.65
- COMPOUND: "O=C(NO)c1cnc(N2CCOC(CNS(=O)(=O)c3ccc(-c4ccccc4)cc3)C2)nc1 (stereo not shown) [Compound 4]"
  Enzyme activity pIC50: 8.097
- COMPOUND: "O=C(NO)c1cnc(N2CCNC(CNS(=O)(=O)c3ccc4ccccc4c3)C2)nc1 (stereo not shown) [Compound 2]"
  Enzyme activity pIC50: 8.059
- COMPOUND: "O=C(NO)c1ccc(N2CCOC(CNS(=O)(=O)c3ccc4ccccc4c3)C2)nc1 (stereo not shown) [Compound 7]"
  Enzyme activity pIC50: 7.323
- COMPOUND: "O=C(NO)c1ccc(N2CCOC(CNS(=O)(=O)c3ccc(-c4ccccc4)cc3)C2)nc1 (stereo not shown) [Compound 5]"
  Enzyme activity pIC50: 7.549
- COMPOUND: "O=C(NO)c1cnc(N2CCO[C@H](CNS(=O)(=O)c3ccc(-c4ccccc4)cc3)C2)nc1 [Compound 12]"
  Enzyme activity pIC50: 7.528
- COMPOUND: "O=C(NO)c1cnc(N2CC[C@H](O)[C@H](CNS(=O)(=O)c3ccc4ccccc4c3)C2)nc1 [Compound 11]"
  Enzyme activity pIC50: 7.553
- COMPOUND: "O=C(NO)c1cnc(N2CCOC(CNC(=O)c3ccc(-c4ccccc4)cc3)C2)nc1 (stereo not shown) [Compound 8]"
  Enzyme activity pIC50: 7.487
- COMPOUND: "O=C(NO)c1cnc(N2CCOC(CNS(=O)(=O)c3ccc4ccccc4c3)C2)nc1 (stereo not shown) [Compound 6]"
  Enzyme activity pIC50: 7.421
- COMPOUND: "O=C(NO)c1cnc(N2CCOC(CNC(=O)c3ccc4ccccc4c3)C2)nc1 (stereo not shown) [Compound 9]"
  Enzyme activity pIC50: 7.609
- COMPOUND: "CN1CCN(c2ncc(C(=O)NO)cn2)CC1CNS(=O)(=O)c1ccc2ccccc2c1 (stereo not shown) [Compound 13]"
  Enzyme activity pIC50: 7.361
- COMPOUND: "O=C(NO)c1cnc(N2CCO[C@H](CNS(=O)(=O)c3ccc(-c4ccccc4)cc3)C2)nc1 [Compound 1]"
  Enzyme activity pIC50: 7.723
- COMPOUND: "O=C(NO)c1cnc(N2CCN(Cc3ccccc3)C(CNS(=O)(=O)c3ccc4ccccc4c3)C2)nc1 (stereo not shown) [Compound 3]"
  Enzyme activity pIC50: 7.647
